- Tested on: corn (Zea mays L.)
- protocol-details: Test Example 1: foliar treatment, growth inhibition rate on 14th day
- Assay type: in vivo
- condition-info: active ingredient amount 31 g/ha, 14th day after application
Record form. Attribute: Growth inhibition rate (%) Corn. Fill in for each entry.
Note: unit % is implicit; provide only the numeric part.

stdin: # query: Growth inhibition rate (%) Corn of entry Cc1ccc(Oc2cc(C(F)(F)F)c(C(F)(F)F)cn2)cc1-c1c(O)c(C)nn(C)c1=O [Compound 2-93]
stdout: 95

stdin: Same lookup for Cc1ccc(Oc2nc3ccc(F)cc3s2)cc1-c1c(O)c(C)nn(C)c1=O [Compound 2-155] , please.
stdout: 10

stdin: Same lookup for CCc1nn(C)c(=O)c(-c2cc(Oc3ncc(C(F)(F)F)cc3Cl)ccc2C)c1OCOC [1-138] , please.
stdout: 83

stdin: Same lookup for CC(=O)Oc1c(C)nn(C)c(=O)c1-c1cc(Oc2ncc(C(F)(F)F)cc2Cl)ccc1C [1-40] , please.
stdout: 100

stdin: Same lookup for Cc1c(Oc2ncc(C(F)(F)F)cc2Cl)cccc1-c1c(O)cnn(CC2CC2)c1=O [1-166] , please.
stdout: 98

stdin: Same lookup for Cc1ccc(Oc2ccc3cc(Br)ccc3n2)cc1-c1c(O)c(C)nn(C)c1=O [Compound 2-94] , please.
stdout: 0

stdin: Same lookup for CCn1nc(C)c(O)c(-c2cc(Oc3nc4ccc(Cl)cc4o3)ccc2C)c1=O [Compound 2-176] , please.
stdout: 80

stdin: Same lookup for Cc1ccc(Oc2ncc(C(F)(F)F)cc2Cl)cc1-c1c(OC(=O)c2nn(C)cc2C)c(C)nn(C)c1=O [1-136] , please.
stdout: 99

stdin: Same lookup for CCc1ccc(Oc2nc3ccccc3o2)cc1-c1c(O)c(C)nn(C)c1=O [Compound 2-165] , please.
stdout: 35

stdin: Same lookup for CCn1ncc(O)c(-c2cc(Oc3ncc(C(F)(F)F)cc3Cl)ccc2C)c1=O [1-157] , please.
stdout: 100

stdin: Same lookup for CC(=O)Oc1c(C)nn(C)c(=O)c1-c1cc(Oc2ncc(C(F)(F)F)cc2Cl)ccc1C1CC1 [1-150] , please.
stdout: 95

stdin: Same lookup for Cc1ccc(Oc2nc3ccc(Cl)cc3o2)cc1-c1c(O)cnn(C)c1=O [Compound 2-163] , please.
stdout: 80

stdin: Same lookup for CC(=O)Oc1cnn(C)c(=O)c1-c1cc(Oc2ncc(C(F)(F)F)cc2Cl)ccc1C [1-171] , please.
stdout: 100

stdin: Same lookup for COC(=O)OC(C)Oc1c(C)nn(C)c(=O)c1-c1cc(Oc2ncc(C(F)(F)F)cc2Cl)c(C)cc1C (stereo not drawn) [1-151] , please.
stdout: 35

stdin: Same lookup for Cc1ccc(Oc2ncc(C(F)(F)F)cc2Cl)cc1-c1c(OS(C)(=O)=O)c(C)nn(C)c1=O [1-62] , please.
stdout: 100

stdin: Same lookup for CC(=O)Oc1c(C)nn(C)c(=O)c1-c1cc(Sc2ncc(C(F)(F)F)cc2Cl)ccc1C [1-42] , please.
stdout: 100

stdin: Same lookup for COC(=O)OC(C)Oc1cnn(C)c(=O)c1-c1cc(Oc2nc3ccc(Cl)cc3o2)ccc1C (stereo not drawn) [Compound 2-178] , please.
stdout: 83

stdin: Same lookup for CCOC(=O)OC(C)Oc1c(C)nn(C)c(=O)c1-c1cc(Oc2ncc(C(F)(F)F)cc2Cl)ccc1C (stereo not drawn) [1-131] , please.
stdout: 80

stdin: Same lookup for Cc1ccc(Oc2nc3ccc(Cl)cc3s2)cc1-c1c(O)c(C)nn(C)c1=O [Compound 2-10] , please.
stdout: 0

stdin: Same lookup for CC(=O)Oc1c(C)nn(C)c(=O)c1-c1cc(Oc2cnc(C(F)(F)F)cn2)ccc1C [Compound 2-195] , please.
stdout: 83

stdin: Same lookup for Cc1ccc(Oc2cnc(C(F)(F)F)cn2)cc1-c1c(O)c(C)nn(C)c1=O [Compound 2-194] , please.
stdout: 60

stdin: Same lookup for CC(=O)Oc1c(C)nn(C)c(=O)c1-c1cc(Oc2ccc(C(F)(F)F)cc2Cl)ccc1C [Compound 2-114] , please.
stdout: 75

stdin: Same lookup for CCc1ccc(Oc2nc3ccc(Cl)cc3s2)cc1-c1c(O)c(C)nn(C)c1=O [Compound 2-150] , please.
stdout: 30

stdin: Same lookup for CCn1nc(C)c(OC(C)=O)c(-c2cc(Oc3nc4ccc(Cl)cc4o3)ccc2C)c1=O [Compound 2-177] , please.
stdout: 83

stdin: Same lookup for COCOc1c(C)nn(C)c(=O)c1-c1cc(Oc2ncc(C(F)(F)F)cc2Cl)ccc1C [1-132] , please.
stdout: 99

stdin: Same lookup for CCc1ccc(Oc2nc3cc(Cl)ccc3o2)cc1-c1c(O)c(C)nn(C)c1=O [Compound 2-162] , please.
stdout: 90

stdin: Same lookup for CCc1ccc(Oc2nc3ccc(Cl)cc3o2)cc1-c1c(OC(C)=O)c(C)nn(C)c1=O [Compound 2-159] , please.
stdout: 100
